Entry source: ChEMBL document CHEMBL1129899

# TARGET ENTITY: UniProt P11473
# Sequence (P11473 whole entry): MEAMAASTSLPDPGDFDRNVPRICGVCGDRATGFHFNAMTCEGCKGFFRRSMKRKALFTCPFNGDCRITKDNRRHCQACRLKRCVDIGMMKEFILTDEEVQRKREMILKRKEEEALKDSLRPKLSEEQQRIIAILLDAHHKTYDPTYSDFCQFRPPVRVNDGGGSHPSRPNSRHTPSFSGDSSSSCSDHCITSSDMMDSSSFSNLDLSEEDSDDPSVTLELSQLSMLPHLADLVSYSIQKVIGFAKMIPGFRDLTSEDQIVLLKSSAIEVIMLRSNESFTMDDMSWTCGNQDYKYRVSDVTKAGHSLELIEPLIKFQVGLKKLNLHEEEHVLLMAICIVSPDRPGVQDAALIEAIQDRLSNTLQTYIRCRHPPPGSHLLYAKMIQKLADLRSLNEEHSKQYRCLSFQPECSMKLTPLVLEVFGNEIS
# EXPERIMENT NOTES: Relative affinity compared to Calcitriol in displacement of [3H]1H]1-alpha,25(OH)2D3 from Vitamin D3 receptor in HL-60 cells
# Format: functional, cell-based
What Activity was measured for each of the following?
Give bare numbers, in %.

Provide Activity values for the following items, in order.
1. C=C1/C(=C/C=C/[C@@H]2CC[C@H]([C@@H](C)CCCC(C)(C)O)C2(C)C)C[C@@H](O)C[C@@H]1O
2. C=C1/C(=C/C=C/[C@@H]2CC[C@H]([C@@H](C)CC#CC(C)(C)O)C2(C)C)C[C@@H](O)C[C@@H]1O
3. C=C1/C(=C/C=C/[C@@H]2CC[C@H]([C@H](C)CC#CC(C)(C)O)C2(C)C)C[C@@H](O)C[C@@H]1O
4. C=C1/C(=C/C=C/[C@@H]2CC[C@H]([C@H](C)CCCC(C)(C)O)C2(C)C)C[C@@H](O)C[C@@H]1O
5. C=C1/C(=C/C=C/[C@@H]2CC[C@H]([C@H](C)CCCC(C)(C)O)[C@@]2(C)CCC)C[C@@H](O)C[C@@H]1O

[100, 100, 100, 85, 10]
